{"molecule": "C[C@]1(COc2ccc(N3CCC(Oc4ccc(OC(F)(F)F)cc4)CC3)nc2)Cn2cc([N+](=O)[O-])nc2O1", "melting point": "185.9 to 186.7 °C"}
{"molecule": "CN(c1ccc(OC[C@@]2(C)Cn3cc([N+](=O)[O-])nc3O2)cc1)C1CCN(c2ccc(OC(F)(F)F)cc2)CC1", "melting point": "137.9 to 139.2 °C"}
{"molecule": "O=[N+]([O-])c1cn2c(n1)OC(COc1ccc(N3CCC(COCc4ccc(C(F)(F)F)cc4)CC3)cc1)C2 (centres unmarked)", "melting point": "140.2 to 141.7 °C"}
{"molecule": "C[C@]1(COc2ccc(N3CCC(OCc4ccc(OC(F)(F)F)cc4)CC3)cc2)Cn2cc([N+](=O)[O-])nc2O1", "melting point": "214.3 to 217.7 °C"}
{"molecule": "CN(C(=O)OC(C)(C)C)C1CCN(Cc2ccc(OCC3(C)Cn4cc([N+](=O)[O-])nc4O3)cc2)CC1 (centres unmarked)", "melting point": "138.5 to 141.9 °C"}
{"molecule": "CN(Cc1cc(C(F)(F)F)cc(C(F)(F)F)c1)C1CCN(c2ccc(OC[C@@]3(C)Cn4cc([N+](=O)[O-])nc4O3)cc2)CC1", "melting point": "193.8 to 195.3 °C"}
{"molecule": "C[C@]1(COc2ccc3c(c2)nc(N2CCN(Cc4ccc(OC(F)(F)F)cc4)CC2)n3Cc2ccccc2)Cn2cc([N+](=O)[O-])nc2O1", "melting point": "101.3 to 104 °C"}
{"molecule": "C[C@]1(COc2ccc(N3CCC(COCc4ccc(C(F)(F)F)cc4)CC3)cc2)Cn2cc([N+](=O)[O-])nc2O1", "melting point": "172.3 to 172.9 °C"}
{"molecule": "C[C@]1(COc2ccc(N3CCC(COC4CCCCO4)CC3)cc2)Cn2cc([N+](=O)[O-])nc2O1 (some centres unmarked)", "melting point": "217.6 to 218.6 °C"}
{"molecule": "C[C@]1(COc2ccc(N3CCC(COC(=O)Nc4ccc(OC(F)(F)F)cc4)CC3)cc2)Cn2cc([N+](=O)[O-])nc2O1", "melting point": "211.6 to 212 °C (dec.)"}
{"molecule": "CN(Cc1ccccc1C(F)(F)F)C1CCN(c2ccc(OC[C@@]3(C)Cn4cc([N+](=O)[O-])nc4O3)cc2)CC1", "melting point": "189.6 to 190.2 °C"}
{"molecule": "CN(c1ccc(OC(F)(F)F)cc1)C1CCN(C2CCN(c3ccc(OC[C@@]4(C)Cn5cc([N+](=O)[O-])nc5O4)cc3)CC2)CC1", "melting point": "196 to 197 °C"}
{"molecule": "C[C@]1(COc2ccc(N3CCC(CCOCc4ccc(C(F)(F)F)cc4)CC3)cc2)Cn2cc([N+](=O)[O-])nc2O1", "melting point": "198 to 199.2 °C"}
{"molecule": "CC1(COc2ccc(N3CCC(Cc4ccc(OC(F)(F)F)cc4)CC3)cc2)Cn2cc([N+](=O)[O-])nc2O1 (centres unmarked)", "melting point": "180.9 to 182.7 °C"}
{"molecule": "C[C@]1(COc2ccc3nc(Cl)ccc3c2)Cn2cc([N+](=O)[O-])nc2O1", "melting point": "182.2 to 184.7 °C"}
{"molecule": "CC1(COc2ccc(N3CCN(CC=Cc4ccc(OC(F)(F)F)cc4)CC3)cc2)Cn2cc([N+](=O)[O-])nc2O1 (centres unmarked)", "melting point": "181.1 to 182.2 °C"}
{"molecule": "C[C@]1(COc2ccc(N3CCC(N4CCN(c5ccc(OC(F)(F)F)cc5)CC4)CC3)cc2)Cn2cc([N+](=O)[O-])nc2O1", "melting point": "279 to 281 °C"}
{"molecule": "O=[N+]([O-])c1cn2c(n1)OC(COc1ccc(N3CCC(Cc4ccc(OC(F)(F)F)cc4)CC3)cc1)C2 (centres unmarked)", "melting point": "132.7 to 135 °C"}
{"molecule": "C[C@]1(COc2ccc(N3CCC(Cc4cccc(OC(F)(F)F)c4)CC3)cc2)Cn2cc([N+](=O)[O-])nc2O1", "melting point": "187.4 to 189.8 °C"}
{"molecule": "C[C@]1(COc2ccc(N3CCC(CO)CC3)cc2)Cn2cc([N+](=O)[O-])nc2O1", "melting point": "171 to 173.8 °C"}
{"molecule": "C[C@]1(COc2ccc(N3CCC(OCc4ccc(C(F)(F)F)cc4)CC3)cc2)Cn2cc([N+](=O)[O-])nc2O1", "melting point": "217.4 to 219.7 °C"}
{"molecule": "C[C@]1(COc2ccc(C(=O)NCC(=O)N3CCC(Oc4ccc(OC(F)(F)F)cc4)CC3)cc2)Cn2cc([N+](=O)[O-])nc2O1", "melting point": "186.9 to 189.5 °C"}
{"molecule": "C[C@]1(COc2ccc(-c3ccc(N4CCN(Cc5ccc(Cl)cc5)CC4)cc3)cc2)Cn2cc([N+](=O)[O-])nc2O1", "melting point": "247.8 to 248.5 °C (dec.)"}
{"molecule": "C[C@]1(COc2ccc3cc(N4CCC(Oc5ccc(OC(F)(F)F)cc5)CC4)ccc3c2)Cn2cc([N+](=O)[O-])nc2O1", "melting point": "204.8 to 207.9 °C"}
{"molecule": "CC1(Cc2ccc(N3CCC(Oc4ccc(OC(F)(F)F)cc4)CC3)cc2)Cn2cc([N+](=O)[O-])nc2O1 (centres unmarked)", "melting point": "184.9 to 186.8 °C"}
{"molecule": "CN(CCOc1ccc(OC(F)(F)F)cc1)C1CCN(c2ccc(OC[C@@]3(C)Cn4cc([N+](=O)[O-])nc4O3)cc2)CC1", "melting point": "185.7 to 187.7 °C"}
